- system tested: human GR (Homo sapiens)
- Sequence (P04150 whole entry): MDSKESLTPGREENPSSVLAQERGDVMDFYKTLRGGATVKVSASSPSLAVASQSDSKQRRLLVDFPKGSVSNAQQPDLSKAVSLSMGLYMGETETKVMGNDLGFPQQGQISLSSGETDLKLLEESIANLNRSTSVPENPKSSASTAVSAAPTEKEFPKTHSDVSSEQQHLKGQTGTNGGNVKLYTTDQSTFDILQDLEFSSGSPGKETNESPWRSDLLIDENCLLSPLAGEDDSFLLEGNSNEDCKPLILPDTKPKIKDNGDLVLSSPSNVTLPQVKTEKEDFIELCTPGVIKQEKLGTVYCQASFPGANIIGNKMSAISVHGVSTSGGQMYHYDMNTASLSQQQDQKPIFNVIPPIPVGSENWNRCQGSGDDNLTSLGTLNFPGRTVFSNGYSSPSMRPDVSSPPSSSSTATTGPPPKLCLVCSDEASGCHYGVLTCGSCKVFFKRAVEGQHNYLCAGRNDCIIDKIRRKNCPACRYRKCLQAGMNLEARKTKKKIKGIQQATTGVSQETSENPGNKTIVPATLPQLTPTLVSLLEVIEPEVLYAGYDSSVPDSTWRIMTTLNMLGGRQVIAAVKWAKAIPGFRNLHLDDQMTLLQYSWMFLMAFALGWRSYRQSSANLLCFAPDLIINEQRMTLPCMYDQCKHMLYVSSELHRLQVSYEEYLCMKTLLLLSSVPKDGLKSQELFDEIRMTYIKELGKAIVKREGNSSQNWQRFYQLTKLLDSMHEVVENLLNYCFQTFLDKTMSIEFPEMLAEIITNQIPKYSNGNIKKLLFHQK
- assay method text: Transrepression Assay (GITAR), TNFα-β-lactamase reporter in U937 cells
- Format: cell-based
- Parameters: U937 cells contain an endogenous glucocorticoid receptor (GR); endogenous in cells; host or cells: U937 cells stably transfected with the TNF-alpha promoter/beta-lactamase reporter
- experimental setup: U937 cells; inflection point; read-out: Transrepression U937 Cells GITAR IP
- Source text: This assay assesses the ability of test compounds to control transcription from the TNFα-β-lactamase reporter gene in U937 cells, a human myelomonocytic leukemia cell line that naturally expresses the human GR. The assay measures compound dependent-repression of the TNFa promoter linked to a reporter gene. The human U937 cells that had been stablely transfected with the TNF-α promoter driving β-lactamase are used for this assay. U937 cells contain an endogenous glucocorticoid receptor (GR). […]
Note to self: use T only for EC50 readings below 200 nM; a reading exactly at 200 nM still gets F.

Query: Check if EC50 falls below 200 nM for Cn1cc(S(=O)(=O)N(CC#N)C[C@H]2CCC3=Cc4c(cnn4-c4ccc(F)cc4)C[C@@]32C)c(C(F)(F)F)n1 .
Response: F

Query: Check if EC50 falls below 200 nM for CCS(=O)(=O)N(CC1CCCO1)C[C@H]1CCC2=Cc3c(cnn3-c3ccc(F)cc3)C[C@@]21C (some centres unmarked) .
Response: F

Query: Check if EC50 falls below 200 nM for CN1CCOc2cc(S(=O)(=O)N(CC#N)C[C@H]3CCC4=Cc5c(cnn5-c5ccc(F)cc5)C[C@@]43C)ccc21 .
Response: T

Query: Check if EC50 falls below 200 nM for C[C@]12Cc3cnn(-c4ccc(F)cc4)c3C=C1CC[C@@H]2CN(CCc1ccccc1O)S(=O)(=O)c1ccccc1F .
Response: T

Query: Check if EC50 falls below 200 nM for CNC(=O)Nc1ccc(S(=O)(=O)N(CC2CC2)C[C@H]2CCC3=Cc4c(cnn4-c4ccc(F)cc4)C[C@@]32C)c(Cl)c1 .
Response: F

Query: Check if EC50 falls below 200 nM for Cc1noc(C)c1S(=O)(=O)N(CCc1ccccc1O)C[C@H]1CCC2=Cc3c(cnn3-c3ccc(F)cc3)C[C@@]21C .
Response: T

Query: Check if EC50 falls below 200 nM for C[C@]12Cc3cnn(-c4ccc(F)cc4)c3C=C1CC[C@@H]2CN(CC#N)S(=O)(=O)c1cccc(Cl)c1Cl .
Response: T

Query: Check if EC50 falls below 200 nM for C[C@]12Cc3cnn(-c4ccc(F)cc4)c3C=C1CC[C@@H]2CN(CCc1ccccn1)S(=O)(=O)Cc1cccnc1 .
Response: F

Query: Check if EC50 falls below 200 nM for Cc1noc(C)c1S(=O)(=O)NC[C@H]1CCC2=Cc3c(cnn3-c3ccc(F)cc3)C[C@@]21C .
Response: F

Query: Check if EC50 falls below 200 nM for C[C@]12Cc3cnn(-c4ccc(F)cc4)c3C=C1CC[C@@H]2CN(CCc1ccccc1F)S(=O)(=O)Cc1ccccc1C(F)(F)F .
Response: T

Query: Check if EC50 falls below 200 nM for C[C@]12Cc3cnn(-c4ccc(F)cc4)c3C=C1CC[C@@H]2CN(CCc1ccccc1O)S(=O)(=O)Cc1cccc(C(F)(F)F)c1 .
Response: F

Query: Check if EC50 falls below 200 nM for C[C@]12Cc3cnn(-c4ccc(F)cc4)c3C=C1CC[C@@H]2CN(CC1CC1)S(=O)(=O)c1ccc(-c2ccccc2)cc1 .
Response: F

Query: Check if EC50 falls below 200 nM for C[C@]12Cc3cnn(-c4ccc(F)cc4)c3C=C1CC[C@@H]2CN(CC#N)S(=O)(=O)c1ccc(C#N)cc1 .
Response: F

Query: Check if EC50 falls below 200 nM for C[C@]12Cc3cnn(-c4ccc(F)cc4)c3C=C1CC[C@@H]2CN(CCc1ccc(O)cc1)S(=O)(=O)CC(F)(F)F .
Response: F
